# Test system: LOX IMVI
# protocol-details: NCI tumour cell line growth inhibition, 48 h
Calls of active or inactive are those of the source. No stated cut-off is given here; in the data, active = GI50 up to about 1.1 µM and inactive = higher.
metric-name: GI50

Worked cases, answers included:
[
  {
    "compound": "CCOC(=O)CC[C@H](NC(=O)N[C@H](C)c1ccccc1)C(=O)OCC",
    "metric-name": "GI50",
    "result": "55.7 µM (inactive)"
  },
  {
    "compound": "CC(C)/C=N\\n1c(N)c(C#N)c(C#N)c1C(C)C",
    "metric-name": "GI50",
    "result": "19 µM (inactive)"
  },
  {
    "compound": "CC1=NN(C(=O)CC(=O)Nc2ccccc2Cl)C(=O)C1/N=N\\c1ccc(S(=O)(=O)c2ccc(/N=N/C3C(=O)N(C(=O)CC(=O)Nc4ccccc4Cl)N=C3C)cc2)cc1 (stereo not given)",
    "metric-name": "GI50",
    "result": "54.1 µM (inactive)"
  },
  {
    "compound": "Cc1nn(-c2nc3ccccc3s2)c2c1C(=O)c1ccccc1-2",
    "metric-name": "GI50",
    "result": "> 100 µM (inactive)"
  },
  {
    "compound": "CCOC(=O)N/N=C(\\Cc1ccccc1)OCC",
    "metric-name": "GI50",
    "result": "> 100 µM (inactive)"
  },
  {
    "compound": "N#Cc1ccc(Oc2nc3ccc(C(F)(F)F)cc3nc2-c2ccccc2)cc1",
    "metric-name": "GI50",
    "result": "27.2 µM (inactive)"
  },
  {
    "compound": "COc1ccc(/C=C2\\CN(C)Cc3c2nc(N)nc3-c2ccc(OC)cc2)cc1",
    "metric-name": "GI50",
    "result": "79.4 µM (inactive)"
  },
  {
    "compound": "O=S(=O)(c1ccccc1)C1CN2OC1(S(=O)(=O)c1ccccc1)CC2c1ccc(Br)cc1 (stereo not given)",
    "metric-name": "GI50",
    "result": "92 µM (inactive)"
  }
]

Inquiry: Given the entry CN1CCOC1(C)CO (stereo not given) , report its measured GI50.
Reply text: > 100 µM (inactive)

Inquiry: Query (compound): `CCOC(=O)c1nc2ccc(C(F)(F)F)cc2nc1Oc1ccc(F)cc1` ; field requested: GI50
Reply text: > 100 µM (inactive)

---

# Test system: EKVX
# protocol-details: NCI tumour cell line growth inhibition, 48 h
The source made the active and inactive calls. Rule as the data show it: active = GI50 up to about 1.1 µM and inactive = higher.
metric-name: GI50

Inquiry: For the record `S=C(N1CCN(c2ccccc2)CC1)N1CCN(c2ccccc2)CC1` , what value of GI50 is listed for EKVX?
Reply text: > 100 µM (inactive)

Inquiry: Value wanted: GI50 (EKVX) of entry `Nc1nc(N)c(-c2ccccc2)c(C(=O)Nc2ccc(Cl)c(Cl)c2)n1`
Reply text: > 100 µM (inactive)

Inquiry: For EKVX, provide GI50 of `Cc1nc(C)c(C(=O)NNC(=O)c2ccccc2)cc1C(=O)NNC(=O)c1ccccc1` please.
Reply text: > 10 µM (inactive)

Inquiry: Fill in the recorded GI50 for this compound, with EKVX as test system: Cc1ccc(S(=O)(=O)NC(C(=O)O)C(C)C)cc1 (configuration not stated)
Reply text: > 100 µM (inactive)

Inquiry: Request - read-out GI50 | tested on EKVX | compound `O=C1c2ccccc2C(=O)c2c1oc1cc(O)c(Cl)cc21`
Reply text: 8.75 µM (inactive)

Inquiry: Fill in the recorded GI50 for this compound, with EKVX as test system: CCCC1(CC(=O)O)OCCc2c1[nH]c1ccccc21 (configuration not stated)
Reply text: > 100 µM (inactive)

Inquiry: Lab request: please report GI50 under test system EKVX for Cc1nn(C(=O)Cc2ccccc2)c2c1C(c1ccc3ccccc3c1O)SC(=N)N2 (configuration not stated)
Reply text: > 100 µM (inactive)

---

# Test system: MOLT-4
# protocol-details: NCI tumour cell line growth inhibition, 48 h
Calls of active or inactive are those of the source. Cut-off read from the data, not from the text of the source: active = GI50 up to about 1.1 µM and inactive = higher.
# valid calls are 1 (active), 0 (inactive); nothing else

[
  {
    "molecule": "COC(=O)N/N=C(/c1nc2ccc([N+](=O)[O-])cc2nc1O)C(O)c1ccc(OC)c(OC)c1 (stereo not given)",
    "label-class": 0
  },
  {
    "molecule": "C[C@@H](Br)[C@@H]1CC[C@H]2c3[nH]c4ccccc4c3CCN2C1",
    "label-class": 0
  },
  {
    "molecule": "O=C1OC[C@@H]2[C@@H](O)CCCCCN12",
    "label-class": 0
  }
]

Inquiry: How did this test come out for COc1ccc(C2C(C=O)C(N3CCN(C)CC3)=Nc3nc4ccccc4n32)cc1 (stereo not given) ?
Reply text: 1

Inquiry: I would be grateful if you could indicate the recorded call for CC(Oc1ccccc1)C(=O)NNC(=O)OC(C)(C)C (stereo not given) .
Reply text: 0

Inquiry: Which outcome was entered for the molecule `[N-]=[N+]=NC[C@H]1OCO[C@H](CN=[N+]=[N-])[C@H]2OCCOCCOc3ccccc3OCCOCCO[C@@H]21` in this test?
Reply text: 0

Inquiry: Dear all, I need the recorded test outcome for `CCOC(=O)[C@@]12C(C)=CC(=O)O[C@]1(C)C[C@H]2C#N` , thank you.
Reply text: 0

Inquiry: Tell me the recorded outcome of this test for `COc1ccc(-c2oc3cc(OC)ccc3c(=O)c2O)cc1` .
Reply text: 0

Inquiry: Any idea what this test logged for `CSc1ccc(-c2cc(-c3nc4ccccc4[nH]3)no2)cc1` ?
Reply text: 0

Inquiry: Given `CN(C)CCCNc1c2ccccc2nc2cccc([N+](=O)[O-])c12` , state the outcome it received in this test.
Reply text: 1

---

Listed here are compounds together with their documented GI50.
# System: EKVX
# protocol-details: NCI tumour cell line growth inhibition, 48 h
Activity calls are given as the source filed them. No stated cut-off is given here; in the data, active = GI50 up to about 1.1 µM and inactive = higher.

Recorded GI50, per entry:
[
  {
    "compound": "COC[C@@H]1[C@H]2OC(C)(C)O[C@H]2C(=O)N1C(=O)c1ccc(OC)cc1",
    "result": "> 100 µM (inactive)"
  },
  {
    "compound": "CCOC(=O)[C@@]12C[C@](/C=C/OC)(O[Si](C)(C)C)[C@@]13c1cc(OC)c(OC)cc1CCN3C(=O)C2=O",
    "result": "> 100 µM (inactive)"
  },
  {
    "compound": "COc1ccccc1CNCc1nc2ccccc2[nH]1",
    "result": "92.9 µM (inactive)"
  },
  {
    "compound": "CN(C)C(=O)OC(Cn1cncn1)c1ccc(Cl)cc1Cl (stereo not given)",
    "result": "> 100 µM (inactive)"
  }
]

Next:
Inquiry: Which GI50 is reported with EKVX for this entry: `COC(=O)c1c(-c2ccccc2)cc2c3cc(-c4ccccc4)c(C(=O)OC)n3c3ccccc3n12` ?
Reply text: > 100 µM (inactive)

---

# Tested on: NCI-H522
# protocol-details: NCI tumour cell line growth inhibition, 48 h
Active and inactive are the calls of the source. Cut-off read from the data, not from the text of the source: active = GI50 up to about 1.1 µM and inactive = higher.
Documented GI50 across a set of compounds

Here is how some compounds turned out for GI50.
[
  {
    "compound": "O=C1OC[C@@H]2[C@@H](O)CCCCCN12",
    "GI50": "> 100 µM (inactive)"
  },
  {
    "compound": "COC(=O)C1=C(O)C(C(=O)OC)[C@@]2(O)[C@@H](C(=O)OC)C(c3ccc(OC(=O)/C(=C/c4ccccc4)c4ccccc4)cc3)C[C@@H]1[C@@H]2C(=O)OC (stereo not given in full)",
    "GI50": "13.3 µM (inactive)"
  },
  {
    "compound": "CC(=O)NNc1nc(C)c(C(=O)/C=C/c2cccc([N+](=O)[O-])c2)s1",
    "GI50": "> 100 µM (inactive)"
  },
  {
    "compound": "O=[N+]([O-])c1ccc(/C=C/c2ccc(/N=N/c3ccc(/C=C/c4ccc([N+](=O)[O-])cc4S(=O)(=O)O)c(S(=O)(=O)O)c3)cc2S(=O)(=O)O)c(S(=O)(=O)O)c1",
    "GI50": "> 100 µM (inactive)"
  },
  {
    "compound": "CN1CCCC2[C@@H]3CCC4c5nonc5CC[C@]4(C)C3CC[C@@]21C (stereo not given in full)",
    "GI50": "> 100 µM (inactive)"
  },
  {
    "compound": "O=C1c2ccccc2S(=O)(=O)c2ccccc21",
    "GI50": "> 100 µM (inactive)"
  }
]

Inquiry: Quick one: GI50 for `O=C1/C(=C\c2ccccc2)c2ccccc2N1Cc1ccccc1` ?
Reply text: 10.1 µM (inactive)

Inquiry: Could you share which GI50 value was measured for `CN(O)C(=O)c1ccc(OCc2cccc(Cl)c2)cc1` ?
Reply text: 13.1 µM (inactive)

Inquiry: Requested read-out: GI50. Entry: O=S(=O)(c1ccccc1)C1CN2OC1(S(=O)(=O)c1ccccc1)CC2c1ccc(Br)cc1 (stereo not given)
Reply text: 34 µM (inactive)

Inquiry: Endpoint output: GI50 of `O=c1n(C2CCCCC2)c(=C(Cl)Cl)c(=C(Cl)Cl)n1C1CCCCC1` . Value?
Reply text: > 100 µM (inactive)
